# reported pEC50; entries follow
# target-or-system: Sphingosine 1-phosphate receptor 2 (Homo sapiens)
# Sequence (O95136 whole entry): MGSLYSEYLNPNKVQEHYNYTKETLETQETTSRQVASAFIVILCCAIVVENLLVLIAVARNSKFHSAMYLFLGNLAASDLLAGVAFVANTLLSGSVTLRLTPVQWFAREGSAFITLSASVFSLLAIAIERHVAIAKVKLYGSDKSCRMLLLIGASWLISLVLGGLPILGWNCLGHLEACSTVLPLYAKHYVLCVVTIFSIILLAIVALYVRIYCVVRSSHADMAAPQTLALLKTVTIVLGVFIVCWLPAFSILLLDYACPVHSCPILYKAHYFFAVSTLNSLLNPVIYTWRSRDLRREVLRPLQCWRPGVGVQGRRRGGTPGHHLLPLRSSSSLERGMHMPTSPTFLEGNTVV
# protocol-notes: Agonist activity at recombinant human S1PR2 expressed in CHO cell membranes assessed as [35S]GTP-gammaS binding measured after 1.5 hrs by TopCount scintillation counting method
pEC50: −log10 of the molar value.
endpoint-name: pEC50

- O=C(O)c1ccc(CNCc2cc3c(-c4ccc5ccccc5c4)cccc3s2)cc1: < 4.00
- O=C(O)CCCNCc1cc2cccc(-c3ccc4ccccc4c3)c2s1: < 4.00
- O=C(O)C1CN(Cc2cc3cc(-c4ccc5ccccc5c4)ccc3s2)C1: < 4.00
- O=C(O)CCCNCc1cc2c(-c3ccc4ccccc4c3)cccc2s1: < 4.00
- O=C(O)CNCc1cc2c(-c3ccc4ccccc4c3)cccc2s1: < 4.00
- O=C(O)CCNCc1cc2c(-c3ccc4ccccc4c3)cccc2s1: < 4.00
- O=C(O)CCCCNCc1cc2c(-c3ccc4ccccc4c3)cccc2s1: < 4.00

====

# reported EC50; entries follow
# target-or-system: Sphingosine 1-phosphate receptor 5 (Homo sapiens, UniProt Q9H228)
# Sequence (Q9H228 whole entry): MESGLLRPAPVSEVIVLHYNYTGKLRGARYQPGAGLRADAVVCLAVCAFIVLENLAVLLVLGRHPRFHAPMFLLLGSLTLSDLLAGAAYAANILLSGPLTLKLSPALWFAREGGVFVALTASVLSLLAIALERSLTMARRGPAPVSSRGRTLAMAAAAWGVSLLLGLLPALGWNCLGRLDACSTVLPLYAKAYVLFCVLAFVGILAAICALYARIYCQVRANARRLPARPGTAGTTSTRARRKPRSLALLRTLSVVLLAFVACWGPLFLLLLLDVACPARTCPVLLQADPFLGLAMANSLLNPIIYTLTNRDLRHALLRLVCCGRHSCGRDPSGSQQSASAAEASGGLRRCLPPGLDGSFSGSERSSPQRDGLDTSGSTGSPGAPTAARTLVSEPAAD
# protocol-notes: Agonist activity at recombinant human S1PR5 expressed in CHO cell membranes assessed as [35S]GTP-gammaS binding measured after 1.5 hrs by TopCount scintillation counting method
endpoint-name: EC50 (µM)

* O=C(O)CCCNCc1cc2c(-c3ccc4ccccc4c3)cccc2s1 | 0.06
* O=C(O)CNCc1cc2cccc(-c3ccc4ccccc4c3)c2s1 | 0.272
* CCc1ccccc1-c1cccc2sc(CN3CC(C(=O)O)C3)cc12 | 21.2
* CCc1ccccc1-c1cccc2sc(CNCc3ccc(C(=O)O)cc3)cc12 | 6.7

====

# reported EC50; entries follow
# target-or-system: Sphingosine 1-phosphate receptor 4 (Homo sapiens, UniProt O95977)
# Sequence (O95977 whole entry): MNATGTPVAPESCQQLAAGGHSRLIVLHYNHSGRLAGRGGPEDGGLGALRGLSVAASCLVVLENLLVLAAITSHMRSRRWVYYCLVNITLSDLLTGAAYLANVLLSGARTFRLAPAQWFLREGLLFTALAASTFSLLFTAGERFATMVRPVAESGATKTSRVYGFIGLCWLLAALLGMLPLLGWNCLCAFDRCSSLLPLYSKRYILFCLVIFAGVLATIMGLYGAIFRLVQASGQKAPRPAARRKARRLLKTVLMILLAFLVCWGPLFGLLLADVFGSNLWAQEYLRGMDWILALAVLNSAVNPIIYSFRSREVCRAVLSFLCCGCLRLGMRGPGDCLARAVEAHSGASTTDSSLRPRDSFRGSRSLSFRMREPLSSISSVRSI
# protocol-notes: Agonist activity at recombinant human S1PR4 expressed in CHO cell membranes assessed as [35S]GTP-gammaS binding measured after 1.5 hrs by TopCount scintillation counting method
endpoint-name: EC50

• O=C(O)CCCCNCc1cc2c(-c3ccc4ccccc4c3)cccc2s1 = 1.08 µM
• CCc1ccccc1-c1cccc2cc(CNCCCC(=O)O)sc12 = > 100 µM
• O=C(O)C1CN(Cc2cc3cc(-c4ccc5ccccc5c4)ccc3s2)C1 = > 100 µM
• CCc1ccccc1-c1cccc2sc(CNCc3ccc(C(=O)O)cc3)cc12 = > 100 µM
• CCc1ccccc1-c1cccc2cc(CNCC(N)C(=O)O)sc12 (stereo unspecified) = 3.1 µM
• O=C(O)Cc1cccc(NCc2cc3cccc(-c4ccc5ccccc5c4)c3s2)c1 = 0.816 µM
• O=C(O)Cc1ccc(NCc2cc3cc(-c4ccc5ccccc5c4)ccc3s2)cc1 = > 100 µM
• O=C(O)Cc1ccc(NCc2cc3c(-c4ccc5ccccc5c4)cccc3s2)cc1 = > 100 µM
• CCc1ccccc1-c1cccc2cc(CNCCCCC(=O)O)sc12 = > 100 µM
• CCc1ccccc1-c1cccc2cc(CN3CC(C(=O)O)C3)sc12 = > 100 µM
• CCc1ccccc1-c1cccc2cc(CNCc3ccc(C(=O)O)cc3)sc12 = > 100 µM

====

# target-or-system: Sphingosine 1-phosphate receptor 4 (Homo sapiens)
# protocol-notes: Agonist activity at recombinant human S1PR4 expressed in CHO cell membranes assessed as [35S]GTP-gammaS binding measured after 1.5 hrs by TopCount scintillation counting method
endpoint-name: log10 EC50 (log10 of the value in nM)

• O=C(O)CCNCc1cc2cccc(-c3ccc4ccccc4c3)c2s1 = 2.27
• CCc1ccccc1-c1cccc2sc(CNCC(C)C(=O)O)cc12 (stereo not given) = 4.01
• O=C(O)Cc1ccc(NCc2cc3cccc(-c4ccc5ccccc5c4)c3s2)cc1 = 3.16
• O=C(O)CCCNCc1cc2cccc(-c3cccc(C(F)(F)F)c3)c2s1 = 2.84
• O=C(O)CCNCc1cc2cc(-c3ccc4ccccc4c3)ccc2s1 = 1.58
• NC(CNCc1cc2cccc(-c3ccc4ccccc4c3)c2s1)C(=O)O (stereo not given) = 2.84
• O=C(O)CCCNCc1cc2cccc(-c3cccc(-c4ccccc4)c3)c2s1 = 2.52
• O=C(O)CCCNCc1cc2cccc(-c3ccc4ccccc4c3)c2s1 = 2.30
• Cc1cccc(-c2cccc3cc(CNCCCC(=O)O)sc23)c1 = 3.97
• Cc1ccccc1-c1cccc2cc(CNCCCC(=O)O)sc12 = 4.13
• O=C(O)CCCNCc1cc2c(-c3ccc4ccccc4c3)cccc2s1 = 2.32
• NC(CNCc1cc2cc(-c3ccc4ccccc4c3)ccc2s1)C(=O)O (stereo not given) = 2.73
• O=C(O)CCCNCc1cc2cccc(-c3cccc4ccccc34)c2s1 = 3.30
• O=C(O)CCCNCc1cc2cccc(-c3ccc(-c4ccccc4)cc3)c2s1 = 3.31
• CCc1ccccc1-c1cccc2sc(CNc3ccc(CC(=O)O)cc3)cc12 = 3.41
• COc1ccc2cc(-c3cccc4cc(CNCCCC(=O)O)sc34)ccc2c1 = 3.29
• CC(C)(C)c1ccc(-c2cccc3cc(CNCCCC(=O)O)sc23)cc1 = 3.71
• CCc1ccccc1-c1cccc2sc(CNCCCCC(=O)O)cc12 = 4.05
• CC(CNCc1cc2cccc(-c3ccc4ccccc4c3)c2s1)C(=O)O (stereo not given) = 3.01
• O=C(O)CCCCNCc1cc2cc(-c3ccc4ccccc4c3)ccc2s1 = 2.86
• CCc1ccccc1-c1cccc2sc(CNCCCC(=O)O)cc12 = 4.26
• CCc1ccccc1-c1cccc2sc(CNCC(N)C(=O)O)cc12 (stereo not given) = 4.76
• CCc1ccccc1-c1cccc2cc(CNc3ccc(CC(=O)O)cc3)sc12 = 3.53
• NC(CNCc1cc2c(-c3ccc4ccccc4c3)cccc2s1)C(=O)O (stereo not given) = 3.04
• O=C(O)CCCNCc1cc2cc(-c3ccc4ccccc4c3)ccc2s1 = 2.22
• CCc1ccccc1-c1cccc2sc(CNc3cccc(CC(=O)O)c3)cc12 = 2.67
• CCc1ccccc1-c1cccc2cc(CNc3cccc(CC(=O)O)c3)sc12 = 3.08
• O=C(O)CNCc1cc2cccc(-c3ccc4ccccc4c3)c2s1 = 3.17
• O=C(O)CCCNCc1cc2cccc(-c3ccc(C(F)(F)F)cc3)c2s1 = 3.28
• O=C(O)CCCNCc1cc2cccc(-c3ccc4c(c3)OCO4)c2s1 = 3.59
• O=C(O)CCCCNCc1cc2cccc(-c3ccc4ccccc4c3)c2s1 = 2.61
• Cc1ccc(-c2cccc3cc(CNCCCC(=O)O)sc23)cc1 = 4.30
• O=C(O)CCNCc1cc2c(-c3ccc4ccccc4c3)cccc2s1 = 2.64
• O=C(O)CNCc1cc2cc(-c3ccc4ccccc4c3)ccc2s1 = 2.54
• CC(CNCc1cc2cc(-c3ccc4ccccc4c3)ccc2s1)C(=O)O (stereo not given) = 2.06

Measured values drawn from ChEMBL document CHEMBL3875189 for this set.
